This listing pairs compounds with measured selectivity ratio.
Test: Selectivity index, ratio of IC50 for mouse RAW264.7 cells to IC50 for antitrypanosomal activity against bloodstream Trypanosoma brucei Lister 427
Type: toxicity
Settings: read-out: Ratio IC50
OBSERVED PROPERTY: selectivity ratio

{"SMILES": "COc1cc(NC(=O)c2ccc(Cl)cc2)ccc1S(N)(=O)=O", "CMP": "=", "RESULT": 0.94}
{"SMILES": "COc1cc(NC(=O)c2ccc(OC(F)(F)F)cc2)ccc1S(N)(=O)=O", "CMP": "=", "RESULT": 0.93}
{"SMILES": "COc1cc(NC(=O)c2ccc(SC)cc2)ccc1S(N)(=O)=O", "CMP": "<", "RESULT": 0.2}
{"SMILES": "COc1cc(NC(=O)c2cccc(C)c2)ccc1S(N)(=O)=O", "CMP": ">", "RESULT": 3.22}
{"SMILES": "COc1cccc(C(=O)Nc2ccc(S(N)(=O)=O)c(OC)c2)c1", "CMP": "=", "RESULT": 38}
{"SMILES": "COc1cc(NC(=O)c2ccco2)ccc1S(N)(=O)=O", "CMP": ">", "RESULT": 10.2}
{"SMILES": "COc1cc(NC(=O)c2cccc(Cl)c2)ccc1S(N)(=O)=O", "CMP": "=", "RESULT": 33.5}
{"SMILES": "COc1cc(NC(=O)c2cccc(I)c2)ccc1S(N)(=O)=O", "CMP": ">", "RESULT": 5.16}
{"SMILES": "CCc1ccc(C(=O)Nc2ccc(S(N)(=O)=O)c(OC)c2)cc1", "CMP": "=", "RESULT": 0.64}
{"SMILES": "COc1cc(NC(=O)c2ccc(C)cc2)ccc1S(N)(=O)=O", "CMP": "=", "RESULT": 0.76}
{"SMILES": "COc1cc(NC(=O)c2ccc([N+](=O)[O-])cc2)ccc1S(N)(=O)=O", "CMP": "=", "RESULT": 176}

====

Assay: Selectivity index, ratio of IC50 for HEK293 cells to IC50 for antitrypanosomal activity against bloodstream Trypanosoma brucei Lister 427
Format: toxicity
Details: human, read-out: Ratio IC50

{"SMILES": "COc1cc(NC(=O)c2ccc([N+](=O)[O-])cc2)ccc1S(N)(=O)=O", "selectivity ratio": "> 30.4"}
{"SMILES": "COc1cc(NC(=O)c2ccc(C)c([N+](=O)[O-])c2)ccc1S(N)(=O)=O", "selectivity ratio": "> 33.3"}
{"SMILES": "COc1cc(NC(=O)c2cccc(C#N)c2)ccc1S(N)(=O)=O", "selectivity ratio": "> 4"}
{"SMILES": "COc1cc(NC(=O)c2cccc(C(F)(F)F)c2)ccc1S(N)(=O)=O", "selectivity ratio": "> 2.78"}
{"SMILES": "COc1cc(NC(=O)c2ccc(C#N)cc2)ccc1S(N)(=O)=O", "selectivity ratio": "> 26.5"}
{"SMILES": "CCOc1ccc(C(=O)Nc2ccc(S(N)(=O)=O)c(OC)c2)cc1", "selectivity ratio": "> 37.3"}

====

This listing pairs compounds with measured IC50 at 48 h.
Test: Cytotoxicity against HEK293 cells assessed as reduction in cell viability after 48 hrs by MTT assay
Type: toxicity, cell-based
Details: human
OBSERVED PROPERTY: IC50 at 48 h

{"SMILES": "COc1cc(NC(=O)c2ccc(Cl)cc2)ccc1S(N)(=O)=O", "RESULT": "> 100 µM"}
{"SMILES": "COc1cc(NC(=O)c2ccccn2)ccc1S(N)(=O)=O", "RESULT": "> 100 µM"}
{"SMILES": "COc1cc(NC(=O)c2ccc(SC)cc2)ccc1S(N)(=O)=O", "RESULT": "> 100 µM"}
{"SMILES": "COc1cc(NC(=O)c2cccc(C)c2)ccc1S(N)(=O)=O", "RESULT": "> 100 µM"}
{"SMILES": "COc1cc(NC(=O)c2ccc(C)c([N+](=O)[O-])c2)ccc1S(N)(=O)=O", "RESULT": "> 100 µM"}
{"SMILES": "COc1cc(NC(=O)c2ccc(C(F)(F)F)cc2C(F)(F)F)ccc1S(N)(=O)=O", "RESULT": "> 100 µM"}
{"SMILES": "COc1cc(NC(=O)c2ccc(C#N)cc2)ccc1S(N)(=O)=O", "RESULT": "> 100 µM"}
{"SMILES": "CCOc1ccc(C(=O)Nc2ccc(S(N)(=O)=O)c(OC)c2)cc1", "RESULT": "> 100 µM"}
{"SMILES": "COc1cc(NC(=O)c2cccc(C#N)c2)ccc1S(N)(=O)=O", "RESULT": "> 100 µM"}
{"SMILES": "COc1cc(NC(=O)c2ccc([N+](=O)[O-])cc2)ccc1S(N)(=O)=O", "RESULT": "> 100 µM"}
{"SMILES": "COc1cc(NC(=O)c2cc(Cl)cc(Cl)c2)ccc1S(N)(=O)=O", "RESULT": "98 µM"}
{"SMILES": "COc1cc(NC(=O)c2ccco2)ccc1S(N)(=O)=O", "RESULT": "> 100 µM"}
{"SMILES": "COc1cc(NC(=O)c2ccc(C)cc2)ccc1S(N)(=O)=O", "RESULT": "17.2 µM"}
{"SMILES": "COc1cc(NC(=O)c2ccc(Cl)c([N+](=O)[O-])c2)ccc1S(N)(=O)=O", "RESULT": "15.7 µM"}
{"SMILES": "COc1cc(NC(=O)c2ccc(OC(F)(F)F)cc2)ccc1S(N)(=O)=O", "RESULT": "35.8 µM"}
{"SMILES": "COc1cc(NC(=O)c2ccccc2[N+](=O)[O-])ccc1S(N)(=O)=O", "RESULT": "> 100 µM"}

All figures here come from ChEMBL document CHEMBL5550157.
